system-name: Human immunodeficiency virus type 1 reverse transcriptase (Human immunodeficiency virus 1)
assay-comment: Inhibition of HIV1 reverse transcriptase at 10 ug/ml
quantity: inhibition (%)

>  <molecule>
Cc1cc(C(F)(F)F)nc(N2C(=O)CSC2c2c(F)cccc2F)n1 (stereo not given)

>  <recorded-result>
32.3

$$$$
>  <molecule>
O=C1CSC(c2c(F)cccc2F)N1c1nc(-c2ccccc2)cc(C(F)(F)F)n1 (stereo not given)

>  <recorded-result>
15.6

$$$$
>  <molecule>
Cc1cc(N2C(=O)CSC2c2c(F)cccc2F)nc(C)n1 (stereo not given)

>  <recorded-result>
27.2

$$$$
>  <molecule>
Cc1cc(N2C(=O)CSC2c2c(F)cccc2Cl)nc(C)n1 (stereo not given)

>  <recorded-result>
9.3

$$$$
>  <molecule>
O=C1CSC(c2c(F)cccc2Cl)N1c1nc(-c2ccccc2)cc(-c2ccccc2)n1 (stereo not given)

>  <recorded-result>
55.6

$$$$
>  <molecule>
O=C1CSC(c2c(Cl)cccc2Cl)N1c1nc(-c2ccccc2)cc(C(F)(F)F)n1 (stereo not given)

>  <recorded-result>
25.4

$$$$
>  <molecule>
Cc1cc(-c2ccccc2)nc(N2C(=O)CSC2c2c(F)cccc2F)n1 (stereo not given)

>  <recorded-result>
47.4

$$$$
>  <molecule>
O=C1CSC(c2c(F)cccc2F)N1c1nc(-c2ccccc2)cc(-c2ccccc2)n1 (stereo not given)

>  <recorded-result>
30.1

$$$$
>  <molecule>
Cc1cc(C(F)(F)F)nc(N2C(=O)CSC2c2c(Cl)cccc2Cl)n1 (stereo not given)

>  <recorded-result>
32.9

$$$$
>  <molecule>
Cc1nc(N2C(=O)CSC2c2c(Cl)cccc2Cl)nc(C)c1C (stereo not given)

>  <recorded-result>
94.8

$$$$

###

assay-comment: Cytotoxicity against mock-infected MT4 cells assessed as reduction of cell viability
Format: cell-based
experimental-conditions: human
quantity: CC50 (µM)

>  <molecule>
O=C1CSC(c2c(F)cccc2Cl)N1c1nc(-c2ccccc2)cc(-c2ccccc2)n1 (configuration not stated)

>  <quantity>
CC50

>  <units-of-measure>
µM

>  <rel>
>

>  <recorded-result>
201

$$$$
>  <molecule>
Cc1cc(N2C(=O)CSC2c2c(Cl)cccc2Cl)nc(C)n1 (configuration not stated)

>  <quantity>
CC50

>  <units-of-measure>
µM

>  <rel>
=

>  <recorded-result>
41.3

$$$$
>  <molecule>
Cc1nc(N2C(=O)CSC2c2c(F)cccc2F)nc(C)c1C (configuration not stated)

>  <quantity>
CC50

>  <units-of-measure>
µM

>  <rel>
=

>  <recorded-result>
341

$$$$
>  <molecule>
Cc1cc(C(F)(F)F)nc(N2C(=O)CSC2c2c(F)cccc2F)n1 (configuration not stated)

>  <quantity>
CC50

>  <units-of-measure>
µM

>  <rel>
=

>  <recorded-result>
125

$$$$
>  <molecule>
O=C1CSC(c2c(Cl)cccc2Cl)N1c1nc(-c2ccccc2)cc(-c2ccccc2)n1 (configuration not stated)

>  <quantity>
CC50

>  <units-of-measure>
µM

>  <rel>
=

>  <recorded-result>
193

$$$$
>  <molecule>
O=C1CSC(c2c(F)cccc2F)N1c1nc(-c2ccccc2)cc(C(F)(F)F)n1 (configuration not stated)

>  <quantity>
CC50

>  <units-of-measure>
µM

>  <rel>
=

>  <recorded-result>
74.3

$$$$
>  <molecule>
Cc1cc(C(F)(F)F)nc(N2C(=O)CSC2c2c(F)cccc2Cl)n1 (configuration not stated)

>  <quantity>
CC50

>  <units-of-measure>
µM

>  <rel>
=

>  <recorded-result>
16.9

$$$$
>  <molecule>
Cc1cc(-c2ccccc2)nc(N2C(=O)CSC2c2c(F)cccc2Cl)n1 (configuration not stated)

>  <quantity>
CC50

>  <units-of-measure>
µM

>  <rel>
=

>  <recorded-result>
146

$$$$
>  <molecule>
Cc1cc(C(F)(F)F)nc(N2C(=O)CSC2c2c(Cl)cccc2Cl)n1 (configuration not stated)

>  <quantity>
CC50

>  <units-of-measure>
µM

>  <rel>
=

>  <recorded-result>
46.4

$$$$
>  <molecule>
Cc1cc(N2C(=O)CSC2c2c(F)cccc2Cl)nc(C)n1 (configuration not stated)

>  <quantity>
CC50

>  <units-of-measure>
µM

>  <rel>
=

>  <recorded-result>
47.6

$$$$
>  <molecule>
O=C1CSC(c2c(F)cccc2F)N1c1nc(-c2ccccc2)cc(-c2ccccc2)n1 (configuration not stated)

>  <quantity>
CC50

>  <units-of-measure>
µM

>  <rel>
=

>  <recorded-result>
177

$$$$
>  <molecule>
O=C1CSC(c2c(F)cccc2Cl)N1c1nc(-c2ccccc2)cc(C(F)(F)F)n1 (configuration not stated)

>  <quantity>
CC50

>  <units-of-measure>
µM

>  <rel>
=

>  <recorded-result>
93.9

$$$$
>  <molecule>
O=C1CSC(c2c(Cl)cccc2Cl)N1c1nc(-c2ccccc2)cc(C(F)(F)F)n1 (configuration not stated)

>  <quantity>
CC50

>  <units-of-measure>
µM

>  <rel>
=

>  <recorded-result>
140

$$$$
>  <molecule>
Cc1cc(-c2ccccc2)nc(N2C(=O)CSC2c2c(Cl)cccc2Cl)n1 (configuration not stated)

>  <quantity>
CC50

>  <units-of-measure>
µM

>  <rel>
=

>  <recorded-result>
35.3

$$$$
>  <molecule>
Clc1cccc(Cl)c1C1SCc2nc3ccccc3n21 (configuration not stated)

>  <quantity>
CC50

>  <units-of-measure>
µM

>  <rel>
=

>  <recorded-result>
9.4

$$$$
>  <molecule>
Cc1cc(-c2ccccc2)nc(N2C(=O)CSC2c2c(F)cccc2F)n1 (configuration not stated)

>  <quantity>
CC50

>  <units-of-measure>
µM

>  <rel>
=

>  <recorded-result>
36.5

$$$$
>  <molecule>
Cc1cc(N2C(=O)CSC2c2c(F)cccc2F)nc(C)n1 (configuration not stated)

>  <quantity>
CC50

>  <units-of-measure>
µM

>  <rel>
=

>  <recorded-result>
272

$$$$

###

system-name: Human immunodeficiency virus type 1 reverse transcriptase (Human immunodeficiency virus 1) (UniProt Q72547)
assay-comment: Inhibition of HIV1 reverse transcriptase at 10 ug/ml

>  <compound>
O=C1CSC(c2c(Cl)cccc2Cl)N1c1nc(-c2ccccc2)cc(-c2ccccc2)n1 (stereo not drawn)

>  <inhibition [%]>
31.6

$$$$
>  <compound>
O=C1CSC(c2c(F)cccc2Cl)N1c1nc(-c2ccccc2)cc(C(F)(F)F)n1 (stereo not drawn)

>  <inhibition [%]>
43.9

$$$$
>  <compound>
Cc1cc(N2C(=O)CSC2c2c(Cl)cccc2Cl)nc(C)n1 (stereo not drawn)

>  <inhibition [%]>
6.6

$$$$
>  <compound>
Cc1cc(-c2ccccc2)nc(N2C(=O)CSC2c2c(F)cccc2Cl)n1 (stereo not drawn)

>  <inhibition [%]>
32.7

$$$$
>  <compound>
Cc1nc(N2C(=O)CSC2c2c(F)cccc2F)nc(C)c1C (stereo not drawn)

>  <inhibition [%]>
96.3

$$$$
>  <compound>
Cc1cc(-c2ccccc2)nc(N2C(=O)CSC2c2c(Cl)cccc2Cl)n1 (stereo not drawn)

>  <inhibition [%]>
18

$$$$
>  <compound>
Cc1cc(C(F)(F)F)nc(N2C(=O)CSC2c2c(F)cccc2Cl)n1 (stereo not drawn)

>  <inhibition [%]>
46.3

$$$$
>  <compound>
Cc1nc(N2C(=O)CSC2c2c(F)cccc2Cl)nc(C)c1C (stereo not drawn)

>  <inhibition [%]>
99.3

$$$$

###

Reported values of inhibition for individual entries
system-name: Human immunodeficiency virus type 1 reverse transcriptase (Human immunodeficiency virus 1)
assay-comment: Inhibition of HIV1 reverse transcriptase at 100 ug/ml
quantity: inhibition (%)

>  <molecule>
Cc1cc(-c2ccccc2)nc(N2C(=O)CSC2c2c(F)cccc2F)n1 (stereo not given)

>  <units-of-measure>
%

>  <recorded-result>
54.2

$$$$
>  <molecule>
O=C1CSC(c2c(F)cccc2F)N1c1nc(-c2ccccc2)cc(C(F)(F)F)n1 (stereo not given)

>  <units-of-measure>
%

>  <recorded-result>
6.6

$$$$
>  <molecule>
Cc1cc(C(F)(F)F)nc(N2C(=O)CSC2c2c(Cl)cccc2Cl)n1 (stereo not given)

>  <units-of-measure>
%

>  <recorded-result>
43.7

$$$$
>  <molecule>
O=C1CSC(c2c(Cl)cccc2Cl)N1c1nc(-c2ccccc2)cc(C(F)(F)F)n1 (stereo not given)

>  <units-of-measure>
%

>  <recorded-result>
39.4

$$$$
>  <molecule>
O=C1CSC(c2c(Cl)cccc2Cl)N1c1nc(-c2ccccc2)cc(-c2ccccc2)n1 (stereo not given)

>  <units-of-measure>
%

>  <recorded-result>
51.4

$$$$
>  <molecule>
Cc1nc(N2C(=O)CSC2c2c(Cl)cccc2Cl)nc(C)c1C (stereo not given)

>  <units-of-measure>
%

>  <recorded-result>
100

$$$$
>  <molecule>
Cc1cc(N2C(=O)CSC2c2c(Cl)cccc2Cl)nc(C)n1 (stereo not given)

>  <units-of-measure>
%

>  <recorded-result>
51.9

$$$$
>  <molecule>
Cc1cc(N2C(=O)CSC2c2c(F)cccc2Cl)nc(C)n1 (stereo not given)

>  <units-of-measure>
%

>  <recorded-result>
48.6

$$$$
>  <molecule>
Cc1cc(C(F)(F)F)nc(N2C(=O)CSC2c2c(F)cccc2Cl)n1 (stereo not given)

>  <units-of-measure>
%

>  <recorded-result>
93.7

$$$$
>  <molecule>
Cc1cc(C(F)(F)F)nc(N2C(=O)CSC2c2c(F)cccc2F)n1 (stereo not given)

>  <units-of-measure>
%

>  <recorded-result>
38.9

$$$$

These data points were gathered from ChEMBL document CHEMBL1143030.
